Values from paper PMC12845078

- method notes: Pharmacokinetics of MT, 6-HMT and CBD in SD rats (i.v. and oral)
- settings: male, Sprague-Dawley, rat, plasma, oral, Cmax; parameter of CBD for static DDI model
measure: Cmax (nM)
Response body: numeric value in nM, unit text excluded.

The compound listed as C=C(C)[C@@H]1CCC(C)=C[C@H]1c1c(O)cc(CCCCC)cc1O [CBD, Cannabidiol] has a reported Cmax of 1620

====

- method notes: Pharmacokinetics of MT, 6-HMT and CBD in beagles after oral administration
- settings: male, beagle, dog, in vivo, po, 3 mg/kg, MRT(0–t), beagles, p.o., MT + Vehicle 3 mg/kg
measure: MRT last (min)
Use min as the unit, but write only the number.

MRT last measured on COc1ccc2[nH]cc(CCNC(C)=O)c2c1 [MT, Melatonin] = 30

====

- method notes: Pharmacokinetics of MT, 6-HMT and CBD in SD rats (i.v. and oral)
- settings: male, Sprague-Dawley, rat, in vivo, po, 5 mg/kg, MRT(0–t), rats, p.o., MT + CBD (5 + 5) mg/kg
measure: MRT last

Item: COc1ccc2[nH]cc(CCNC(C)=O)c2c1 | MRT last: 39 min

====

// reported fraction unbound at 6 h per item
- method notes: Brain tissue protein binding, rat
- Assay type: in vitro ADME
- settings: pH 7.4
Lab note: jot the number down without any unit.

- test smiles: "COc1ccc2[nH]cc(CCNC(C)=O)c2c1"
  measure: "fraction unbound at 6 h"
  measured number: 0.315

Lab note: C=C(C)[C@@H]1CCC(C)=C[C@H]1c1c(O)cc(CCCCC)cc1O gave fraction unbound at 6 h of 0.0006

====

- method notes: Plasma protein binding (rapid equilibrium dialysis), human
- Type: in vitro ADME
- settings: pH 7.4, read-out: Plasma Protein Binding (converted)
measure: fraction unbound at 6 h

So, COc1ccc2[nH]cc(CCNC(C)=O)c2c1 ? Its fraction unbound at 6 h was 0.388

====

- System: CYP enzymes of MT 6-hydroxylation
- method notes: in vitro
- settings: beagle, dog, liver microsomes, probe melatonin (MT) 2 μM, 6-hydroxylation to 6-HMT, IC50 Ratio (IC50 shift), DLM, 30 min pre-incubation with/without NADPH
measure: IC50 shift at 30 min

Please fill in: IC50 shift at 30 min reported for C=C(C)[C@@H]1CCC(C)=C[C@H]1c1c(O)cc(CCCCC)cc1O = 1.27

====

- tested system: CYP enzymes involved in melatonin 6-hydroxylation (Canis lupus familiaris, UniProt P56592)
- Sequence (P56592 2-512): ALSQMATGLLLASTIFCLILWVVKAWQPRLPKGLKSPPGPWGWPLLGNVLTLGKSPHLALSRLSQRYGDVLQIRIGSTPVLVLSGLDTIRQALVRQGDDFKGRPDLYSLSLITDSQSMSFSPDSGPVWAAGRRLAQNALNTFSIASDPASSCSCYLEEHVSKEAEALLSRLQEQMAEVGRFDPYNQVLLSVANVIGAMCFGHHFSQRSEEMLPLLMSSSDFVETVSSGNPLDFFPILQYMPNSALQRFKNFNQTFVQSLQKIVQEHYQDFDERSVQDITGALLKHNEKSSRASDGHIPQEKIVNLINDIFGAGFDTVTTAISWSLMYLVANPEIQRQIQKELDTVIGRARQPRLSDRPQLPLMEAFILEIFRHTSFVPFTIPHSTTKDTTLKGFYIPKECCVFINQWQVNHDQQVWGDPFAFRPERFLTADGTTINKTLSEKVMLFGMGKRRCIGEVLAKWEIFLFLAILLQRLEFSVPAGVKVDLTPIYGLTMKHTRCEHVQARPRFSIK
- method notes: Competitive inhibition of CBD on MT 6-hydroxylation, beagle liver microsomes
- Type: in vitro ADME
- settings: dog, probe melatonin (MT) 1 μM, 6-hydroxylation to 6-HMT, IC50, beagle, as listed in Table 6 for static DDI model
measure: IC50 at 30 min (nM)
Express it in nM; write the number only.

Summary for this molecule, C=C(C)[C@@H]1CCC(C)=C[C@H]1c1c(O)cc(CCCCC)cc1O : IC50 at 30 min is 650

====

- method notes: Pharmacokinetics of MT, 6-HMT and CBD in beagles after oral administration
- settings: male, beagle, dog, in vivo, po, 3 mg/kg, Cmax, beagles, p.o., MT + Vehicle 3 mg/kg
measure: Cmax (ng/mL)
# unit: ng/mL | format: bare number

For this molecule ( COc1ccc2[nH]cc(CCNC(C)=O)c2c1 ), measured Cmax is 1080

====

- method notes: Pharmacokinetics of MT, 6-HMT and CBD in SD rats (i.v. and oral)
- settings: Sprague-Dawley, rat, plasma, po, 20 mg/kg, AUC(0–∞), rats, p.o., MT + CBD (20 + 20) mg/kg
measure: AUC(0-inf) (ng·h/mL)
Give just the numeric value; ng·h/mL need not be written.

Item: C=C(C)[C@@H]1CCC(C)=C[C@H]1c1c(O)cc(CCCCC)cc1O [CBD, Cannabidiol] | AUC(0-inf): 1410

====

- method notes: Pharmacokinetics of MT, 6-HMT and CBD in SD rats (i.v. and oral)
- settings: Sprague-Dawley, rat, plasma, po, 20 mg/kg, AUC(0–t), rats, p.o., Vehicle + CBD 20 mg/kg
measure: AUC(0-t) (ng·h/mL)
Write the value in ng·h/mL as a bare number.

Lab note: C=C(C)[C@@H]1CCC(C)=C[C@H]1c1c(O)cc(CCCCC)cc1O [CBD, Cannabidiol] gave AUC(0-t) of 1570

====

- method notes: Pharmacokinetics of MT, 6-HMT and CBD in beagles after oral administration
- settings: male, beagle, dog, in vivo, po, 3 mg/kg, AUC(0–∞), beagles, p.o., MT + CBD (3 + 3) mg/kg
measure: AUC(0-inf) (ng·h/mL)
Write the number in ng·h/mL without appending the unit.

The measured AUC(0-inf) associated with COc1ccc2[nH]cc(CCNC(C)=O)c2c1 reads 2550

====

- method notes: Pharmacokinetics of MT, 6-HMT and CBD in SD rats (i.v. and oral)
- settings: male, Sprague-Dawley, rat, in vivo, po, 5 mg/kg, Cmax, rats, p.o., MT + Vehicle 5 mg/kg
measure: Cmax (ng/mL)
Your answer should be a plain number; it is taken to be in ng/mL.

Quick note, Cmax for COc1ccc2[nH]cc(CCNC(C)=O)c2c1 landed at 588

====

- tested system: UniProt:P04799
- Sequence (P04799 2-513): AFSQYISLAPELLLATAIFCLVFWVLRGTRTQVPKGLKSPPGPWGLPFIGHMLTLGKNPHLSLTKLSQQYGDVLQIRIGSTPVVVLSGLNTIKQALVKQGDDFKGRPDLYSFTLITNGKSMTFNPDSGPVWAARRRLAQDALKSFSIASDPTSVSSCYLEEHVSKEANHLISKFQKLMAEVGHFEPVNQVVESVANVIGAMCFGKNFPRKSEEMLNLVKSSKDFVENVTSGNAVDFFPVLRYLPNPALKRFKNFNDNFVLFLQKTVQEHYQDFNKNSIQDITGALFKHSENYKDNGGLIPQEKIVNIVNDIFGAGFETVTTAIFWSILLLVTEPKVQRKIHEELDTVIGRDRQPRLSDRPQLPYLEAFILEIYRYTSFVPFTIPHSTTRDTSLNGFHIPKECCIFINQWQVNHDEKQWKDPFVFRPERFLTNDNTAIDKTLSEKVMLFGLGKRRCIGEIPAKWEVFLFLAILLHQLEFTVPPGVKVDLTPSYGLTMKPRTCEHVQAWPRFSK
- method notes: Competitive inhibition of CBD on MT 6-hydroxylation, rat liver microsomes
- Format: in vitro ADME
- settings: probe melatonin (MT) 1 μM, 6-hydroxylation to 6-HMT, IC50, rat, as listed in Table 6 for static DDI model
measure: IC50 at 30 min (µM)
Value expressed in µM; do not type the unit.

According to the records, this compound C=C(C)[C@@H]1CCC(C)=C[C@H]1c1c(O)cc(CCCCC)cc1O [CBD, Cannabidiol] displays IC50 at 30 min of 9.51

====

- method notes: Plasma protein binding (rapid equilibrium dialysis), human
- Assay type: in vitro ADME
- settings: pH 7.4, human, read-out: fu, p (free fraction in plasma)
measure: fraction unbound at 6 h
Would you mind answering with just the numeric figure?

Looking up C=C(C)[C@@H]1CCC(C)=C[C@H]1c1c(O)cc(CCCCC)cc1O [CBD, Cannabidiol] , I see its fraction unbound at 6 h listed as 0.0001

====

- method notes: Pharmacokinetics of MT, 6-HMT and CBD in beagles after oral administration
- settings: male, beagle, dog, in vivo, po, 3 mg/kg, AUC(0–t), beagles, p.o., MT + Vehicle 3 mg/kg
measure: AUC(0-t)
Answer shape: numeric part, then the unit.

// COc1ccc2[nH]cc(CCNC(C)=O)c2c1 : AUC(0-t) value = 602 ng·h/mL

====

- method notes: Pharmacokinetics of MT and CBD in rats after pre-administration of ABT
- settings: Sprague-Dawley, rat, in vivo, po, 5 mg/kg
measure: Cmax (ng/mL)
Numeric answer only, unit ng/mL assumed.

For COc1ccc2[nH]cc(CCNC(C)=O)c2c1 the molecule record lists Cmax as 2100

====

- method notes: Pharmacokinetics of MT, 6-HMT and CBD in SD rats (i.v. and oral)
- settings: male, Sprague-Dawley, rat, plasma, po, 20 mg/kg, Tmax, rats, p.o., MT + CBD (5 + 20) mg/kg
measure: Tmax (h)
Numbers only; they are read as h.

Documented Tmax of C=C(C)[C@@H]1CCC(C)=C[C@H]1c1c(O)cc(CCCCC)cc1O : 1.5

====

- method notes: Pharmacokinetics of MT, 6-HMT and CBD in SD rats (i.v. and oral)
- settings: Sprague-Dawley, rat, plasma, po, 20 mg/kg, Tmax, rats, p.o., Vehicle + CBD 20 mg/kg
measure: Tmax (min)
Just the number please, in min, no unit attached.

Form: compound = C=C(C)[C@@H]1CCC(C)=C[C@H]1c1c(O)cc(CCCCC)cc1O ; Tmax = 55.2

====

- method notes: Pharmacokinetics of MT, 6-HMT and CBD in SD rats (i.v. and oral)
- settings: male, Sprague-Dawley, rat, in vivo, po, 5 mg/kg, AUC(0–1h), rats, p.o., MT + CBD (5 + 20) mg/kg
measure: AUC(0-t)

The recorded AUC(0-t) for entry COc1ccc2[nH]cc(CCNC(C)=O)c2c1 equals 65.2 ng·h/mL

====

- method notes: Pharmacokinetics of MT, 6-HMT and CBD in beagles after oral administration
- settings: male, beagle, dog, plasma, oral
measure: Cmax

Form: molecule = C=C(C)[C@@H]1CCC(C)=C[C@H]1c1c(O)cc(CCCCC)cc1O ; Cmax = 1310 nM

====

- method notes: Pharmacokinetics of MT, 6-HMT and CBD in SD rats (i.v. and oral)
- settings: Sprague-Dawley, rat, plasma, po, 20 mg/kg, MRT(0–t), rats, p.o., MT + CBD (20 + 20) mg/kg
measure: MRT last
Put your answer as a value accompanied by its unit after it.

Entry C=C(C)[C@@H]1CCC(C)=C[C@H]1c1c(O)cc(CCCCC)cc1O ; MRT last = 2.71 h
